These entries and their values trace back to PubChem BioAssay (NCATS).

- testName: qHTS drug screen for cell cycle checkpoint inhibitors in PARPi-resistant BRCA-mutant ovarian cancer cell lines. (AID 1963452)
- assayConditions: PEO1/OlaR viability, CellTiter-Glo luminescence, 96 h; measured here: PEO1 parental Z-AUC; stronger effect = lower value
measurementKind: Z-AUC
Please reply with the number alone, leaving off any unit.

Consider the reported Z-AUC for these compounds:
compound | Z-AUC
C[C@@H](c1ncncc1F)[C@](O)(Cn1cncn1)c1ccc(F)cc1F | 1.15
CC(C)C[C@H](NC(=O)[C@H](Cc1ccccc1)NC(=O)c1cnccn1)B(O)O | -3.19
Cc1ccc(Nc2nccc(N(C)c3ccc4c(C)n(C)nc4c3)n2)cc1S(N)(=O)=O | 0.627
CN(C)C(=O)[C@H](O)[C@H](Cc1ccccc1)NC(=O)c1cc2cc(Cl)ccc2[nH]1 | 0.139
O=C(NCCO[N+](=O)[O-])c1cccnc1 | -0.487
COc1c2occc2cc2ccc(=O)oc12 | 1.07
O=C(CCc1ccc(O)cc1)c1c(O)cc(O)cc1O | -0.361
O=C(c1ccccc1)c1ccc2n1CCC2C(=O)O (configuration not stated) | 0.719

For the compound "Clc1ccc2c(N3CCN(CCCN4CCN(c5ccnc6cc(Cl)ccc56)CC4)CC3)ccnc2c1" , give its measured Z-AUC value.
0.492

# return recorded Z-AUC for entry "COCCCN1CCC(NC(=O)c2cc(Cl)c(N)c3c2OCC3)CC1"
1.56
